# target_or_test_system: HLA-A*02:12
# test_protocol: IEDB peptide-MHC binding, purified MHC/direct/fluorescence; filed as Kd, often an IC50 or EC50 that approximates it; bounds were set here for any values at or beyond the usual limits of such assays
# cond: source organism: Limestone Canyon virus
pKd: −log10 of the molar value.
quantity_measured: pKd

So, "KSAFYQSYL" ? Its pKd was ≤ 4.70

* * *

# target_or_test_system: HLA-B*58:01
# test_protocol: IEDB peptide-MHC binding, purified MHC/competitive/fluorescence; filed as Kd, often an IC50 or EC50 that approximates it; bounds were set here for any values at or beyond the usual limits of such assays
# cond: source organism: Four Corners hantavirus
quantity_measured: Kd (nM)
Note: unit nM is implicit; provide only the numeric part.

Item: "KSAFYQSYL" | System: HLA-B*58:01 | Kd: 2.1

* * *

# target_or_test_system: HLA-B*44:02
# test_protocol: IEDB peptide-MHC binding, purified MHC/direct/fluorescence; filed as Kd, often an IC50 or EC50 that approximates it; bounds were set here for any values at or beyond the usual limits of such assays
# cond: source organism: Yellow fever virus
quantity_measured: Kd

So, "VNRWLFRHL" ? Its Kd was ≥ 20 µM

* * *

# target_or_test_system: HLA-B*48:01
# test_protocol: IEDB peptide-MHC binding, purified MHC/direct/fluorescence; filed as Kd, often an IC50 or EC50 that approximates it; bounds were set here for any values at or beyond the usual limits of such assays
# cond: source organism: Mycobacterium tuberculosis str. Haarlem
quantity_measured: pKd
Scale explanation: pKd corresponds to minus log10 of a concentration expressed in moles per litre.

So, "AAAAFEAAL" ? Its pKd was 6.76

* * *

# target_or_test_system: HLA-A*23:01
# test_protocol: IEDB peptide-MHC binding, purified MHC/competitive/radioactivity; filed as Kd, often an IC50 or EC50 that approximates it; bounds were set here for any values at or beyond the usual limits of such assays
# cond: source organism: Mammarenavirus lassaense
quantity_measured: Kd

Item: "AGFSAGLTY" | System: HLA-A*23:01 | Kd: ≥ 43.8 µM

* * *

# target_or_test_system: HLA-A*69:01
# test_protocol: IEDB peptide-MHC binding, purified MHC/direct/fluorescence; filed as Kd, often an IC50 or EC50 that approximates it; bounds were set here for any values at or beyond the usual limits of such assays
# cond: source organism: Influenza A virus (A/swine/Korea/S190/2004(H9N2))
quantity_measured: Kd

So, "WIPKRNRSI" ? Its Kd was ≥ 20 µM

* * *

# target_or_test_system: HLA-A*33:01
# test_protocol: IEDB peptide-MHC binding, purified MHC/competitive/radioactivity; filed as Kd, often an IC50 or EC50 that approximates it; bounds were set here for any values at or beyond the usual limits of such assays
# cond: source organism: Vaccinia virus WR
quantity_measured: Kd

primary_sequence	Kd
LSDIISAEK	12.6 µM
ATSSFREKSR	0.163 µM
KSLNRQTVSR	1.32 µM
QMREIITGNK	≥ 47.5 µM
VVKDDPDHYK	≥ 70 µM
TSVSAKQLR	9.11 µM
FSGKEPISDY	≥ 70 µM
MLIFNVKSK	≥ 45.8 µM
FLELKRGIYK	0.945 µM
NSEYIESKAK	≥ 30.6 µM

Kindly review the next sequence as well.
So, "DITFLRPVLK" ? Its Kd was 5.84 µM
